Molecular target: HLA-B*51:01
Test: IEDB peptide-MHC binding, purified MHC/competitive/fluorescence; filed as Kd, often an IC50 or EC50 that approximates it; bounds were set here for any values at or beyond the usual limits of such assays
Settings: source organism: Shigella flexneri 5 str. 8401
Readout Label: pKd
Note: pKd values are expressed as the negative base-10 logarithm of concentration in M.

Task: Look up pKd for this sequence: `LPRRLQLLF`
Output: 5.58

###

Target: HLA-A*11:01
Assay: IEDB peptide-MHC binding, purified MHC/direct/fluorescence; filed as Kd, often an IC50 or EC50 that approximates it; bounds were set here for any values at or beyond the usual limits of such assays
Details: source organism: Francisella tularensis subsp. holarctica LVS
Readout Label: Kd

Task: Look up Kd for this sequence: `REIGDISYL`
Output: ≥ 20 µM

###

Target: HLA-B*27:05
Assay: IEDB peptide-MHC binding, purified MHC/direct/fluorescence; filed as Kd, often an IC50 or EC50 that approximates it; bounds were set here for any values at or beyond the usual limits of such assays
Conditions: source organism: Cowpox virus
Readout Label: Kd

Task: Look up Kd for this sequence: `YKDANISMY`
Output: ≥ 20 µM

###

Target: HLA-B*39:01
Test: IEDB peptide-MHC binding, purified MHC/competitive/fluorescence; filed as Kd, often an IC50 or EC50 that approximates it; bounds were set here for any values at or beyond the usual limits of such assays
Settings: source organism: Orthohantavirus andesense
Readout Label: Kd

Task: Look up Kd for this sequence: `QIQAGNFHW`
Output: ≥ 20 µM

###

Target: HLA-C*14:02
Test: IEDB peptide-MHC binding, purified MHC/competitive/fluorescence; filed as Kd, often an IC50 or EC50 that approximates it; bounds were set here for any values at or beyond the usual limits of such assays
Settings: source organism: Bacillus anthracis str. A0488
Readout Label: Kd
Please report the result as a number followed by the unit.

Task: Request - read-out Kd | tested on HLA-C*14:02 | sequence `TTYVYTLPV`
Output: 3.5 nM

###

Biological target: HLA-A*68:01
Test: IEDB peptide-MHC binding, purified MHC/competitive/radioactivity; filed as Kd, often an IC50 or EC50 that approximates it; bounds were set here for any values at or beyond the usual limits of such assays
Conditions: source organism: Dengue virus 4 Philippines/H241/1956
Listing of recorded Kd by entry.
Please report the result as a number followed by the unit.

| Biosequence | Kd |
| --- | --- |
| HLAIMAVFK | 70.6 nM |
| ETTILDVDLR | 45 nM |
| NIVMLHTTER | 16.9 nM |

Okay, next one:
Task: Look up Kd for this sequence: `QAIDGEFRLR`
Output: 15.5 nM

###

Target: HLA-B*51:01
Assay: IEDB peptide-MHC binding, purified MHC/competitive/radioactivity; filed as Kd, often an IC50 or EC50 that approximates it; bounds were set here for any values at or beyond the usual limits of such assays
Conditions: source organism: Dengue virus 1 Brazil/97-11/1997
Readout Label: Kd (µM)
Please state the figure in µM; there is no need to write the unit.

Task: Look up Kd for this sequence: `TPQDNQLAYV`
Output: 14.6

Task: Look up Kd for this sequence: `LPLPWTSGAS`
Output: 10.6

###

Target: HLA-A*33:01
Test: IEDB peptide-MHC binding, purified MHC/competitive/radioactivity; filed as Kd, often an IC50 or EC50 that approximates it; bounds were set here for any values at or beyond the usual limits of such assays
Conditions: source organism: Dengue virus 4 Philippines/H241/1956
Readout Label: Kd

Examples with their reported Kd follow.
| Biosequence | Kd |
| --- | --- |
| GYVLGIFLR | 39.8 nM |
| DYEVDEDIFR | 471 nM |
| EMGANFRAGR | 7.51 nM |
| NIVMLHTTER | 83.8 nM |

Task: Look up Kd for this sequence: `WYMWQVKTQR`
Output: 2.54 nM
